TARGET_OF_ASSAY: human GR (Homo sapiens)
Sequence (P04150 whole entry): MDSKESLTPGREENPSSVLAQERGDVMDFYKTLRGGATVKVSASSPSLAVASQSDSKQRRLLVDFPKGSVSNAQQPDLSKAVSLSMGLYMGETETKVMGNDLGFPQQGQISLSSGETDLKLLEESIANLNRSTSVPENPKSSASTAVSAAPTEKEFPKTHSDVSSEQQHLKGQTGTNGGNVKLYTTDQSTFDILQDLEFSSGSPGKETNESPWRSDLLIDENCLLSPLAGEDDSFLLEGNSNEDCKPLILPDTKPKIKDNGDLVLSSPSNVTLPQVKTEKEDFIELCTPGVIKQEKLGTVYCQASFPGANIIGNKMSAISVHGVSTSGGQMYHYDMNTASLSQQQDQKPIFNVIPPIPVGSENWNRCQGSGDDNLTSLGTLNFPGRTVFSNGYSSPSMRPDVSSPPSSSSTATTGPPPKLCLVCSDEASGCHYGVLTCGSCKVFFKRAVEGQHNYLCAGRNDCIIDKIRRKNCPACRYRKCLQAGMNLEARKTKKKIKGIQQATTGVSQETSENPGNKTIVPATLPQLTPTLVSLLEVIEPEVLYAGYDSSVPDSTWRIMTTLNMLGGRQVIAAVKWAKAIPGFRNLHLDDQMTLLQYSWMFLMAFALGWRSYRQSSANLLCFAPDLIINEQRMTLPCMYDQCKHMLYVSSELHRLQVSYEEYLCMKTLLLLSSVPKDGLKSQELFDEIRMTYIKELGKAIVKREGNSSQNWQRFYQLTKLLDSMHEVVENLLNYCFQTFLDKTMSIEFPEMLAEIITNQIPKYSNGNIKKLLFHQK
EXPERIMENT_DESCRIPTION: Trans-Activation Modulation of Glucocorticoid Receptor (GRAMMER), MMTV-LUC reporter, agonist mode
Type: cell-based
Parameters: endogenous in cells
TEST_SETTINGS: A549 cells; inflection point; read-out: Transactivation A549 Cells GRAMMER IP
pEC50: −log10 of the molar value.
READOUT_KIND: pEC50

COMPOUND | OBS_VALUE
CC(CN(C[C@H]1CCC2=Cc3c(cnn3-c3ccc(F)cc3)C[C@@]21C)S(=O)(=O)CC(F)(F)F)c1cccnc1 (stereo partly shown) [Example 146] | 6.58
Cc1nn(C)c(Cl)c1S(=O)(=O)N(CCO)C[C@H]1CCC2=Cc3c(cnn3-c3ccc(F)cc3)C[C@@]21C [Example 83] | 6.25

[P] C[C@]12Cc3cnn(-c4ccc(F)cc4)c3C=C1CC[C@@H]2CN(CCc1ccccn1)S(=O)(=O)CCN1C(=O)c2ccccc2C1=O [Example 152]
[Q] Cc1ccc(S(=O)(=O)N(CCO)C[C@H]2CCC3=Cc4c(cnn4-c4ccc(F)cc4)C[C@@]32C)s1 [Example 64]
Data request: Sort P and Q by pEC50 descending and give the first. Please indicate the selected item by its label.
Data returned: P
(P: 7.19, Q: 6.21)
